The measured values listed here are drawn from patent US20230295182A1.

Target: human Gal-3 (hGal-3) (Homo sapiens (Human), UniProt P17931)
Sequence (P17931 whole entry): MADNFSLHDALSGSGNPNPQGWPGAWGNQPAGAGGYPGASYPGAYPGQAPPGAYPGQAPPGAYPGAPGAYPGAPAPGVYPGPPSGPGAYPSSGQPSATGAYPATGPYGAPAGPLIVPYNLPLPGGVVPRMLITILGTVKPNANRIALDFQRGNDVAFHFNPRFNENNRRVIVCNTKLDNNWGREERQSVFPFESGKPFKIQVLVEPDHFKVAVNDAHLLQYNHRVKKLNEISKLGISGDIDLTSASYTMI
pIC50: −log10 of the molar value.
REPORTED METRIC: pIC50

Use these answered entries as a reference point.
CO[C@@H]1[C@@H](n2cc(-c3ccc(F)c(F)c3F)nn2)[C@@H](O)[C@@H](CO)O[C@@H]1CC1=NO[C@]2(CC[C@H](C(C)(C)O)CC2)C1 :: 6.59
CO[C@@H]1[C@@H](n2cc(-c3ccc(F)c(F)c3F)nn2)[C@@H](O)[C@@H](CO)O[C@@H]1CC1=NOC2(CCC(C(C)(C)O)CC2)C1 (some centres unmarked) :: 6.31
CO[C@@H]1[C@@H](n2cc(-c3ccc(F)c(F)c3F)nn2)[C@@H](O)[C@@H](CO)O[C@@H]1CC1=NO[C@]2(CC[C@H](C#N)CC2)C1 :: 6.89
CO[C@@H]1[C@@H](n2cc(-c3ccc(Cl)c(F)c3F)nn2)[C@@H](O)[C@@H](CO)O[C@@H]1CC1=NO[C@]2(CC[C@H](NC(=O)OC(C)(C)C)CC2)C1 :: 8.00
CO[C@@H]1[C@@H](n2cc(-c3cc(F)c(F)c(F)c3)nn2)[C@@H](O)[C@@H](CO)O[C@@H]1CC1=NO[C@]2(CC[C@@H](NCC(F)F)CC2)C1 :: 6.42

P = CO[C@@H]1[C@@H](n2cc(-c3cc(F)c(F)c(F)c3)nn2)[C@@H](O)[C@@H](CO)O[C@@H]1CC1=NOC2(CCN(C)CC2)C1
Q = CCOC(=O)N[C@H]1CC[C@]2(CC1)CC(C[C@H]1O[C@H](CO)[C@H](O)[C@H](n3cc(-c4ccc(C)c(F)c4F)nn3)[C@H]1OC)=NO2
// which entry reports the smaller pIC50, P or Q ? Response format: the label of the selected entry.
P

a = CO[C@@H]1[C@@H](n2cc(-c3cc(F)c(F)c(F)c3)nn2)[C@@H](O)[C@@H](CO)O[C@@H]1CC1=NOC2(CCN(C(=O)OC(C)(C)C)CC2)C1
b = CO[C@@H]1[C@@H](n2cc(-c3cc(F)c(F)c(F)c3)nn2)[C@@H](O)[C@@H](CO)O[C@@H]1CC1=NO[C@]2(CC[C@@H](O)CC2)C1
Rank a against b by their pIC50 values and give the higher one. Field: selected label. Fill in the label of the entry you choose.
a
(a: 6.47, b: 6.15)

1 = CO[C@@H]1[C@@H](n2cc(-c3ccc(Cl)c(F)c3F)nn2)[C@@H](O)[C@@H](CO)O[C@@H]1CC1=NO[C@]2(CC[C@@H](NC(=O)OC(C)(C)C)CC2)C1
2 = CO[C@@H]1[C@@H](n2cc(-c3cc(F)c(C)cc3F)nn2)[C@@H](O)[C@@H](CO)O[C@@H]1CC1=NOC2(CCCCC2)C1
Problem: Given the entries 1 and 2 , determine which has the lower reported pIC50. Returns: label corresponding to the selected item.
2

###

Biological target: human Gal-1 (hGal-1) (Homo sapiens)
Test: Competitive binding assay: biotinylated hGal-1 to microplate-adsorbed asialofetuin (ASF)
Settings: Activities on hGal-1; binding to ASF-coated plates, 3 hours at 4° C.; mean values; read-out: Gal-1 IC50
REPORTED METRIC: IC50 (nM)

CO[C@@H]1[C@@H](n2cc(-c3cc(F)c(F)c(F)c3)nn2)[C@@H](O)[C@@H](CO)O[C@@H]1CC1=NO[C@]2(CC[C@@H](NCC(F)F)CC2)C1 :: 1600

1 = CO[C@@H]1[C@@H](n2cc(-c3ccc(Cl)c(F)c3F)nn2)[C@@H](O)[C@@H](CO)O[C@@H]1CC1=NO[C@]2(CC[C@@H](NC(=O)OC(C)(C)C)CC2)C1
2 = CO[C@@H]1[C@@H](n2cc(-c3cc(F)c(F)c(F)c3)nn2)[C@@H](O)[C@@H](CO)O[C@@H]1CC1=NOC2(CCCCCC2)C1
3 = CO[C@@H]1[C@@H](n2cc(-c3ccc(F)c(F)c3F)nn2)[C@@H](O)[C@@H](CO)O[C@@H]1CC1=NO[C@]2(CC[C@H](C(C)(C)O)CC2)C1
4 = CO[C@@H]1[C@@H](n2cc(-c3ccc(Cl)c(F)c3F)nn2)[C@@H](O)[C@@H](CO)O[C@@H]1CC1=NOC2(CCC(C#N)CC2)C1 (some centres unmarked)
List these items ordered by IC50, big to small. Respond with an ordered listing of the labels, as requested.
2, 3, 1, 4

###

Biological target: human Gal-1 (hGal-1) (Homo sapiens, UniProt P09382)
Sequence (P09382 2-135 limits assumed): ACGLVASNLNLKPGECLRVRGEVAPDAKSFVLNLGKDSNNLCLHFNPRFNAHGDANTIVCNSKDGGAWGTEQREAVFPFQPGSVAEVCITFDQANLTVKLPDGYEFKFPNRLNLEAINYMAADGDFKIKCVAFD
Assay: Competitive binding assay: biotinylated hGal-1 to microplate-adsorbed asialofetuin (ASF)
Conditions: Activities on hGal-1; binding to ASF-coated plates, 3 hours at 4° C.; mean values; read-out: Gal-1 IC50
pIC50: −log10 of the molar value.
REPORTED METRIC: pIC50

CO[C@@H]1[C@@H](n2cc(-c3ccc(C)c(F)c3)nn2)[C@@H](O)[C@@H](CO)O[C@@H]1CC1=NOC2(CCCCC2)C1 :: 5.28
CO[C@@H]1[C@@H](n2cc(-c3cc(F)c(F)c(F)c3)nn2)[C@@H](O)[C@@H](CO)O[C@@H]1CC1=NOC2(CCN(C(=O)NC(C)(C)C)CC2)C1 :: 5.77

P = CCOC(=O)N[C@H]1CC[C@]2(CC1)CC(C[C@H]1O[C@H](CO)[C@H](O)[C@H](n3cc(-c4ccc(F)c(F)c4F)nn3)[C@H]1OC)=NO2
Q = CO[C@@H]1[C@@H](n2cc(-c3cc(F)c(F)c(F)c3)nn2)[C@@H](O)[C@@H](CO)O[C@@H]1CC1=NOC2(CCC(O)CC2)C1 (stereo partly drawn)
R = CO[C@@H]1[C@@H](n2cc(-c3cc(F)c(F)c(F)c3)nn2)[C@@H](O)[C@@H](CO)O[C@@H]1CC1=NOC2(CCC(F)(F)CC2)C1
S = CO[C@@H]1[C@@H](n2cc(-c3ccc(C)c(F)c3F)nn2)[C@@H](O)[C@@H](CO)O[C@@H]1CC1=NO[C@]2(CC[C@H](C#N)CC2)C1
Output the entries ranked by pIC50 from maximum down to minimum. Record the ranking as a list of labels in the requested order.
P, S, Q, R
(P: 6.49, S: 6.28, Q: 5.66, R: 5.31)

###

As an illustration, consider measured pIC50 for compounds on human Gal-3 (hGal-3) (Homo sapiens (Human), UniProt P17931).
pIC50: −log10 of the molar value.
REPORTED METRIC: pIC50

CC(=O)O[C@@H]1[C@@H](n2cc(-c3ccc(C)c(F)c3F)nn2)[C@@H](O)[C@@H](CO)O[C@@H]1CC1=NOC2(CCC(F)(F)CC2)C1 :: 7.10

P = CO[C@@H]1[C@@H](n2cc(-c3cc(F)c(F)c(F)c3)nn2)[C@@H](O)[C@@H](CO)O[C@@H]1CC1=NO[C@]2(CC[C@H](NC(=O)OC(C)(C)C)CC2)C1
Q = CO[C@@H]1[C@@H](n2cc(-c3cc(F)c(F)c(F)c3)nn2)[C@@H](O)[C@@H](CO)O[C@@H]1CC1=NO[C@]2(CC[C@H](NCC(F)F)CC2)C1
R = CO[C@@H]1[C@@H](n2cc(-c3cc(F)c(F)c(F)c3)nn2)[C@@H](O)[C@@H](CO)O[C@@H]1CC1=NO[C@]2(CC[C@@H](NC3CC3)CC2)C1
S = CCOC(=O)N[C@H]1CC[C@]2(CC1)CC(C[C@H]1O[C@H](CO)[C@H](O)[C@H](n3cc(-c4ccc(Cl)c(F)c4F)nn3)[C@H]1OC)=NO2
Order the records by pIC50, with each subsequent value no larger than the one before. Returns: the labels arranged in the requested order.
S, P, Q, R

###

Biological target: human Gal-1 (hGal-1) (Homo sapiens)
Assay: Competitive binding assay: biotinylated hGal-1 to microplate-adsorbed asialofetuin (ASF)
Settings: Activities on hGal-1; binding to ASF-coated plates, 3 hours at 4° C.; mean values; read-out: Gal-1 IC50
pIC50: −log10 of the molar value.
REPORTED METRIC: pIC50

Reference set, count: 3
CO[C@@H]1[C@@H](n2cc(-c3cc(F)c(F)c(F)c3)nn2)[C@@H](O)[C@@H](CO)O[C@@H]1CC1=NOC2(CCC(C)CC2)C1 (stereo partly drawn) :: 5.51
CO[C@@H]1[C@@H](n2cc(-c3ccc(Cl)c(F)c3F)nn2)[C@@H](O)[C@@H](CO)O[C@@H]1CC1=NO[C@]2(CC[C@H](C(C)(C)O)CC2)C1 :: 5.62
CCC(CC)NC1CCC2(CC1)CC(C[C@H]1O[C@H](CO)[C@H](O)[C@H](n3cc(-c4cc(F)c(F)c(F)c4)nn3)[C@H]1OC)=NO2 (stereo partly drawn) :: 5.59

A = CO[C@@H]1[C@@H](n2cc(-c3ccc(C)c(F)c3F)nn2)[C@@H](O)[C@@H](CO)O[C@@H]1CC1=NO[C@]2(CC[C@H](NCC(F)F)CC2)C1
B = CO[C@@H]1[C@@H](n2cc(-c3ccc(Cl)c(F)c3F)nn2)[C@@H](O)[C@@H](CO)O[C@@H]1CC1=NO[C@]2(CC[C@H](NC(C)=O)CC2)C1
Hi, I'm comparing two records. Which one has the lower pIC50, A or B ? Pick one and reply with its label.
A
(A: 5.62, B: 6.04)
